Experiment: DSSTox (CPDBAS) Carcinogenic Potency Database Summary MultiCellCall Results
Conditions: animal carcinogenicity bioassays, multi-cell call summary
Activity calls are given as the source filed them.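 Rule for the calls: active = tumour findings in long-term animal cancer tests in more than one sex, species or organ; inactive = no tumour finding and more than one negative test.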
Please reply with one of these outcomes: 1 (active), -1 (inactive)

Below, 5 molecules whose answers are already recorded.
CN(C)CCN(C)N=O    1
[S-]c1nc2ccccc2s1.[S-]c1nc2ccccc2s1.[Zn+2]    -1
CC(=O)NCc1nc(-c2ccc([N+](=O)[O-])o2)no1    1
O=CNc1nc(-c2ccc([N+](=O)[O-])o2)cs1    1
C=C1C(CCl)(CCl)C2(Cl)C(Cl)C(Cl)C1(Cl)C2(Cl)Cl (stereo unspecified)    1

Enquiry: Can you look up the reported call for `COP(=S)(OC)SCn1nnc2ccccc2c1=O` for me?
Return: -1

Enquiry: Here is the next molecule: `[O-]/[N+](=N\O)c1ccccc1`
Return: 1

Enquiry: What about `Oc1ccc(OCc2ccccc2)cc1` ?
Return: -1

Enquiry: Here is the next molecule: `CN(C)CCOC(c1ccccc1)c1ccccc1`
Return: -1

* * *

Assay: DSSTox (CPDBAS) Carcinogenic Potency Database Summary MultiCellCall Results
Conditions: animal carcinogenicity bioassays, multi-cell call summary
Active and inactive are the calls of the source.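 Rule for the calls: active = tumour findings in long-term animal cancer tests in more than one sex, species or organ; inactive = no tumour finding and more than one negative test.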
Result category, one only: active, inactive

# count of solved cases: 5
Cc1cc(-c2ccc(N)c(C)c2)ccc1N    active
ClC(Cl)=C(c1ccc(Cl)cc1)c1ccc(Cl)cc1    active
Cc1ccccc1OCC(O)CNCCn1cc(C)c(=O)[nH]c1=O (stereo not drawn)    inactive
O=C1O[C@@H](CN2CCOCC2)CN1/N=C/c1ccc([N+](=O)[O-])o1    active
Cc1ccc(N=Nc2c(O)c(S(=O)(=O)O)cc3ccc(S(=O)(=O)O)cc23)c(C)c1    active

Enquiry: Look up the recorded call for `CCBr` in this test.
Return: active

Enquiry: Input `C#C[C@]1(OC(C)=O)CC[C@H]2[C@@H]3CCC4=CC(=O)CC[C@@H]4[C@H]3CC[C@@]21C`
Return: active

Enquiry: Then `Cc1ccc2ccccc2c1` ?
Return: inactive

Enquiry: Another compound to look at: O=C1C(O)N=C(c2ccccc2F)c2cc(Cl)ccc2N1CCO (stereo not drawn)
Return: inactive

Enquiry: Likewise for `F[B-](F)(F)F` ?
Return: inactive

Enquiry: # iterate: `CCCCOC(=O)c1ccc(O)cc1`
Return: inactive

* * *

Test: DSSTox (CPDBAS) Carcinogenic Potency Database Summary MultiCellCall Results
Details: animal carcinogenicity bioassays, multi-cell call summary
The source made the active and inactive calls.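 The calls were made as follows: active = tumour findings in long-term animal cancer tests in more than one sex, species or organ; inactive = no tumour finding and more than one negative test.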
The reply should name one outcome from true (1) = active, false (0) = inactive

Reference set, count: 6
O=NN1CCCCC1    true (1)
COC(=O)C(C)(C)Oc1ccc(-c2ccc(Cl)cc2)cc1    true (1)
Nc1ccccc1    true (1)
c1cc(OCC2CO2)cc(OCC2CO2)c1 (stereo unspecified)    true (1)
CN(CCCC(=O)c1cccnc1)N=O    true (1)
Cc1ccc2ncccc2c1    false (0)

Enquiry: Could you please tell me the result logged for `NNc1ccc(C(=O)O)cc1` in this assay?
Return: true (1)

Enquiry: Also check `Cc1ccc2c(-c3cccc(O)c3)nc(=O)n(C(C)C)c2c1`
Return: false (0)

Enquiry: Another compound to look at: `CC(C)OC(=O)Nc1cccc(Cl)c1`
Return: false (0)

Enquiry: Continue with CCSCCC(N)C(=O)O (stereo unspecified)
Return: true (1)

Enquiry: Same question, `Nc1ccccc1C(=O)OC/C=C/c1ccccc1` this time
Return: true (1)

* * *

Experiment: DSSTox (CPDBAS) Carcinogenic Potency Database Summary MultiCellCall Results
Conditions: animal carcinogenicity bioassays, multi-cell call summary
Text: The Carcinogenic Potency Database (CPDB) is a unique and widely used international resource of the results of over 6500 chronic, long-term animal cancer tests on over 1500 chemical substances. The CPDB provides easy access to the bioassay literature, with qualitative and quantitative analyses of both positive and negative experiments that have been published over the past 50 years in the general literature and by the National Cancer Institute/National Toxicology Program. […]
Activity calls are given as the source filed them.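 How the source made its calls: active means tumour findings in long-term animal cancer tests in more than one sex, species or organ; inactive means no tumour finding and more than one negative test.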
Respond using exactly one of the listed classes: active, inactive

# example entries with known answers
CN(C)[C@@H]1C(=O)C(C(N)=O)=C(O)[C@@]2(O)C(=O)C3=C(O)c4c(O)cccc4[C@@](C)(O)[C@H]3[C@H](O)[C@@H]12    inactive
COc1ccc(C(c2ccc(OC)cc2)C(Cl)(Cl)Cl)cc1    inactive

Enquiry: Hi team, can someone confirm the assay call for `CCOC(=O)N(CC)N=O` ?
Return: active

Enquiry: What about this compound? `C=CCNN`
Return: active

Enquiry: Thanks! And CNCc1ccc(CSCCNC(=NCC(O)c2ccc(O)cc2)NS(C)(=O)=O)o1 (configuration not stated) ?
Return: active

* * *

Experiment: DSSTox (CPDBAS) Carcinogenic Potency Database Summary MultiCellCall Results
Settings: animal carcinogenicity bioassays, multi-cell call summary
Active and inactive are the calls of the source.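 Rule for the calls: active = tumour findings in long-term animal cancer tests in more than one sex, species or organ; inactive = no tumour finding and more than one negative test.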
Lab note: assign the record to one of active, inactive

FC(F)(Cl)Cl    inactive
O=S1(=O)CCCO1    active
CCCCOCCO    active

Enquiry: Test call for this molecule, please: `CC1=CC(=O)CC(C)(C)C1`
Return: active

* * *

Experiment: DSSTox (CPDBAS) Carcinogenic Potency Database Summary MultiCellCall Results
Settings: animal carcinogenicity bioassays, multi-cell call summary
Activity calls are given as the source filed them.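 How the source made its calls: active means tumour findings in long-term animal cancer tests in more than one sex, species or organ; inactive means no tumour finding and more than one negative test.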
I would appreciate it if you answered using one of these outcomes: True = active, False = inactive

See these solved cases before continuing.
IC(I)I    False
COc1ccc(N)c(OC)c1    False

Enquiry: Hi, sorry to bother you, what did the test record for `C=CC(=C)C` ?
Return: True

Enquiry: Lookup `Nc1ccc(Oc2ccc(Cl)cc2)cc1`
Return: True

Enquiry: Okay, and `FC(F)=C(F)F` ?
Return: True

Enquiry: Here is the next compound: ClC1=C(Cl)C2(Cl)C3C(Cl)OC(Cl)C3C1(Cl)C2(Cl)Cl (stereo unspecified)
Return: False

Enquiry: One more compound: `CN(C)c1ccc(C(=C2C=CC(=[N+](C)C)C=C2)c2ccc(N(C)C)cc2)cc1`
Return: True

Enquiry: What would you report for `CN(N=O)C(=O)c1ccccc1` ?
Return: True

Enquiry: Also check `CC(=O)OCc1ccccc1`
Return: True

Enquiry: Next compound: `COc1ccc(CCN2CCC(Nc3nc4ccccc4n3Cc3ccc(F)cc3)CC2)cc1`
Return: False

Enquiry: Another compound: Clc1ccc(C(c2ccccc2Cl)C(Cl)Cl)cc1 (stereo unspecified)
Return: False

Enquiry: Request: C1C2OC2C2C1C1CC2C2OC12 (stereo unspecified)
Return: False

Enquiry: Now the same for `O=[N+]([O-])c1ccc(Cl)cc1`
Return: True

Enquiry: Please give the result for `NC(=O)N(CCc1ccccc1)N=O` too.
Return: True

Enquiry: And `CCn1cc(C(=O)O)c(=O)c2ccc(C)nc21` ?
Return: True

Enquiry: Follow-up item: `O=C(Oc1ccccc1)Oc1ccccc1`
Return: False

Enquiry: Try this compound too: CC1=C(C(=O)OCCN(Cc2ccccc2)c2ccccc2)C(c2cccc([N+](=O)[O-])c2)C(P2(=O)OCC(C)(C)CO2)=C(C)N1 (stereo unspecified)
Return: False

* * *

Experiment: DSSTox (CPDBAS) Carcinogenic Potency Database Summary MultiCellCall Results
Settings: animal carcinogenicity bioassays, multi-cell call summary
The source made the active and inactive calls.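 Rule for the calls: active = tumour findings in long-term animal cancer tests in more than one sex, species or organ; inactive = no tumour finding and more than one negative test.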
Your response should consist of one outcome taken from active, inactive

Here's what some known entries look like.
O=NN(CCCl)C(=O)N[C@@H]1[C@@H](O)[C@H](O)[C@@H](CO)O[C@@H]1O    active
O=[N+]([O-])c1ccccc1    active
C1CO1    active
CC(C)(C)c1cc(C(C)(C)C)c(O)c(C(C)(C)C)c1    inactive
CC(=O)Nc1ccc(S(=O)(=O)O)c2cc(S(=O)(=O)O)c(N=Nc3ccc(N=Nc4ccc(S(=O)(=O)O)cc4)c4ccc(S(=O)(=O)O)cc34)c(O)c12    inactive

Then this compound:
Enquiry: Call for entry `Cc1cc(Cc2cc(C)cc(C(C)(C)C)c2O)c(O)c(C(C)(C)C)c1` :
Return: inactive

* * *

Experiment: DSSTox (CPDBAS) Carcinogenic Potency Database Summary MultiCellCall Results
Settings: animal carcinogenicity bioassays, multi-cell call summary
Calls of active or inactive are those of the source.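 Rule for the calls: active = tumour findings in long-term animal cancer tests in more than one sex, species or organ; inactive = no tumour finding and more than one negative test.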
Pick from yes for active, no for inactive when you respond.

CC1CO1 (stereo unspecified)    yes

Enquiry: Query: recorded result category for `CCOP(=S)(OCC)Oc1ccc2c(C)c(Cl)c(=O)oc2c1` in this test
Return: no

Enquiry: And `NNc1nc(-c2ccc(N)cc2)cs1` ?
Return: yes

Enquiry: Input CCOc1nc2cccc(C(=O)OC(C)OC(=O)OC3CCCCC3)c2n1Cc1ccc(-c2ccccc2-c2nn[nH]n2)cc1 (stereo unspecified)
Return: no

Enquiry: Quick one: `COc1ccccc1N1CCN(CCCNc2cc(=O)n(C)c(=O)n2C)CC1`
Return: no

Enquiry: Here is the next molecule: O=P(O)(OCC(Br)CBr)OCC(Br)CBr (stereo unspecified)
Return: yes

Enquiry: Request: `CCCCCCCCCc1ccc(OCCOCCO)cc1`
Return: no

Enquiry: // repeat for `CC(=O)c1ccc(S(=O)(=O)NC(=O)NC2CCCCC2)cc1` and report
Return: no

Enquiry: Request: `Cc1cc(Cl)ccc1OCC(=O)O`
Return: no
